src = patent US10233158B2

Below, each of the compounds is paired with its reported IC50 value.
- systemTested: ENaC (Canis lupus familiaris, UniProt A0A8I3MKE6+A0A8I3Q679+Q95165)
- Sequence (A0A8I3Q679 1-649): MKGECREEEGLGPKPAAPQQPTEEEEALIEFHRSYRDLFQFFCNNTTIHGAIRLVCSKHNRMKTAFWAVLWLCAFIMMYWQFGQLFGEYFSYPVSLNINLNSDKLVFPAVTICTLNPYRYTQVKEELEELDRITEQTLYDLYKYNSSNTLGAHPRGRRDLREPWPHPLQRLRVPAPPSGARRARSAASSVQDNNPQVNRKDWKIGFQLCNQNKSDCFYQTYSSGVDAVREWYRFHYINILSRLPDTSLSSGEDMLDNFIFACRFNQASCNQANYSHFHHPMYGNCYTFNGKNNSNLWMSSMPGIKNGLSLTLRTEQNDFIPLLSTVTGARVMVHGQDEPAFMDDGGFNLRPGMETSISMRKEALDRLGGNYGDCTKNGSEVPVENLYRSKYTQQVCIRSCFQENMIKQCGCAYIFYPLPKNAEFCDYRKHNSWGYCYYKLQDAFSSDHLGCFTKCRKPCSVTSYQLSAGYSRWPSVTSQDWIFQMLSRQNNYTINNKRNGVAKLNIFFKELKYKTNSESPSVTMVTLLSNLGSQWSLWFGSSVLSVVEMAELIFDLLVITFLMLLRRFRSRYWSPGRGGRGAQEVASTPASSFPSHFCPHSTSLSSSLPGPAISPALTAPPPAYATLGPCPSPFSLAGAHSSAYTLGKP
- Sequence (Q95165 whole entry): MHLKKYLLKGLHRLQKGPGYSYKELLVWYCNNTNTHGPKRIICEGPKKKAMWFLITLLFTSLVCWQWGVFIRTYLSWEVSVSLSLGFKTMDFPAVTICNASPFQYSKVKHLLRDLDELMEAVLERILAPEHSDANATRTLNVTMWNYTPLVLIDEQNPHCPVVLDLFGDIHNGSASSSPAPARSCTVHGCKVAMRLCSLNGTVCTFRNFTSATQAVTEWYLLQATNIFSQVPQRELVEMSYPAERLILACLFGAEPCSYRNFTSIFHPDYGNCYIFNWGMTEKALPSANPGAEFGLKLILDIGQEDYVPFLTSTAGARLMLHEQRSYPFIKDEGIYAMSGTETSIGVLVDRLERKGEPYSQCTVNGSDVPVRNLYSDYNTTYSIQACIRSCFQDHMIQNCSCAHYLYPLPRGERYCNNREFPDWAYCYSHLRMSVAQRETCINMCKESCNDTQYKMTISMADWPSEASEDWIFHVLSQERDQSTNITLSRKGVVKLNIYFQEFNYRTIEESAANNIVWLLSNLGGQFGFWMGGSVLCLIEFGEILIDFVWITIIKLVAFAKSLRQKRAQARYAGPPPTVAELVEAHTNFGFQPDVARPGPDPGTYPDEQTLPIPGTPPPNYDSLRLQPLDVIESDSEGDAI
- Sequence (A0A8I3MKE6 1-646): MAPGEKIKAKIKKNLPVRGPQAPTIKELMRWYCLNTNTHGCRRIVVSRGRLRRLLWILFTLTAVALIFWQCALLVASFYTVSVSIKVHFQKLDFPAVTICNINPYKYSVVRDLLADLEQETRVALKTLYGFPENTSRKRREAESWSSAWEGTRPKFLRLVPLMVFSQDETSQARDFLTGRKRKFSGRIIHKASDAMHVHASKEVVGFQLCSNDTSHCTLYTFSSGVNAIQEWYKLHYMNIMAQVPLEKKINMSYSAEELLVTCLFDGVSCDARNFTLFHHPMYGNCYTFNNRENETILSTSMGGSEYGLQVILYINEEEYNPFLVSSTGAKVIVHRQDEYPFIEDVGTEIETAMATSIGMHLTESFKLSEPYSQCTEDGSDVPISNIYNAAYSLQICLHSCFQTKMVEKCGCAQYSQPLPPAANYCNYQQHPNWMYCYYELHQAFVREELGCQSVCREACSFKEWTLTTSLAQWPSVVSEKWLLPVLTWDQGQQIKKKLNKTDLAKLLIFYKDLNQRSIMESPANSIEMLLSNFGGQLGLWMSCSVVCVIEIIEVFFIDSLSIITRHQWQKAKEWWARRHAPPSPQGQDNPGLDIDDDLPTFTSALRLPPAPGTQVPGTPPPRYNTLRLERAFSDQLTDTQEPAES
- testMethodNotes: Inhibition of short-circuit current (ISC) and reversibility, bronchial epithelial monolayers in Ussing chamber, canine cells
- cond: canine bronchial epithelial cells (CBE); mean ± SD (n)

>  <structureAsSmiles>
N=C(NCCCCc1ccc(OCCN(CCCc2cccc3ccccc23)C[C@H](O)[C@@H](O)[C@H](O)[C@H](O)CO)cc1)NC(=O)c1nc(Cl)c(N)nc1N

>  <measurementUnits>
nM

>  <IC50>
5.9

$$$$
>  <structureAsSmiles>
N=C(NCCCCc1ccc(OCCN(CCCc2ccc3ccccc3c2)C[C@H](O)[C@@H](O)[C@H](O)[C@H](O)CO)cc1)NC(=O)c1nc(Cl)c(N)nc1N

>  <measurementUnits>
nM

>  <IC50>
5.6

$$$$
>  <structureAsSmiles>
N=C(NCCCCc1ccc(OCCN(CCCc2ccccc2)C[C@H](O)[C@@H](O)[C@H](O)[C@H](O)CO)cc1)NC(=O)c1nc(Cl)c(N)nc1N

>  <measurementUnits>
nM

>  <IC50>
6.6

$$$$
>  <structureAsSmiles>
N=C(NCCCCc1ccc(CCCN(CCCc2ccccc2)C[C@H](O)[C@@H](O)[C@H](O)[C@H](O)CO)cc1)NC(=O)c1nc(Cl)c(N)nc1N

>  <measurementUnits>
nM

>  <IC50>
11.8

$$$$
